- Tested on: Salmon testes DNA
- TEST_NAME: Binding affinity to salmon sperm DNA assessed as thermal stability by measuring change in melting temperature at 15 uM at pH 7 by spectrophotometric analysis
- Assay type: nucleic-acid assay
- EXPERIMENTAL_CONTEXT: Salmo salar
Entries annotated with measured ΔTm
ASSAY_ENDPOINT: ΔTm (°C)

>>> observed_measurement("N=C(N)NCc1ccc(Cn2nc(CNC(=N)N)ccc2=O)cc1")
1.4
>>> observed_measurement("Cc1cc(=O)n(Cc2ccc(CNC(=N)N)cc2)nc1CNC(=N)N")
1.2
>>> observed_measurement("N=C(N)NCc1ccc(Cn2nccc(CNC(=N)N)c2=O)cc1")
1.1
>>> observed_measurement("N=C(N)NCc1ccc(Cn2ncc(CNC(=N)N)cc2=O)cc1")
1.2
